Below: a set of entries, each annotated with reported IC50.
- tgt: human 5-HT7 receptor (Homo sapiens, UniProt P34969)
- Sequence (P34969 whole entry): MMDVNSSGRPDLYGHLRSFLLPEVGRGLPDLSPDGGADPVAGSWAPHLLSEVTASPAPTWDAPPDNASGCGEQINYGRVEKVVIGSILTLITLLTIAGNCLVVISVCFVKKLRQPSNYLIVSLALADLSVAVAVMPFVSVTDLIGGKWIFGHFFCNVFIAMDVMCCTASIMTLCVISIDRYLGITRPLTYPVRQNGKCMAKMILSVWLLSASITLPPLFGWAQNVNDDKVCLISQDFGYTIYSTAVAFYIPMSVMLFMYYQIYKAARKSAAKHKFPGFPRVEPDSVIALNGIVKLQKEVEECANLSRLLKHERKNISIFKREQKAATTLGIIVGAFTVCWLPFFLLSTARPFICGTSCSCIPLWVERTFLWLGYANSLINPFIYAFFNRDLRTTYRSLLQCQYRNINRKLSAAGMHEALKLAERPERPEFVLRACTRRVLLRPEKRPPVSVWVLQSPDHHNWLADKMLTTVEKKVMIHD
- protocol_notes: 5HT7 Antagonism Assay (Euroscreen FAST-0499C), cAMP HTRF
- assay_context: CHO-K1 cells expressing human 5-HT7, reference agonist at EC80, cAMP HTRF
measurement_type: IC50

- NCC1Oc2ccc(F)cc2Oc2ccccc21 (single isomer, unassigned) [Compound 41]: 1 to 10 µM
- CNCC1Cc2ccccc2Oc2ccc(F)cc21 (single isomer, unassigned) [Compound 94]: 1 to 10 µM
- CNCC1Oc2ccccc2Oc2ncccc21 (single isomer, unassigned) [Compound 46]: ≥ 10 µM
- C[C@@H]1c2ccccc2Oc2cccnc2[C@@H]1CN (stereo in doubt) [Compound 112]: ≥ 10 µM
- NCC1Oc2ccccc2Oc2cccnc21 (single isomer, unassigned) [Compound 59]: ≥ 10 µM
- NCC1Cc2ccccc2Oc2cc(F)ccc21 (single isomer, unassigned) [Compound 1]: ≥ 10 µM
- CN(C)CC1Cc2ccccc2Oc2cccnc21 (single isomer, unassigned) [Compound 111]: ≥ 10 µM
- CNCC1Cc2ncccc2Oc2ccccc21 (single isomer, unassigned) [Compound 32]: ≥ 10 µM
- NCC1Oc2ccc(F)cc2Oc2ccccc21 (single isomer, unassigned) [Compound 42]: ≥ 10 µM
- NCC1Cc2ncc(F)cc2Oc2ccccc21 (single isomer, unassigned) [Compound 40]: ≥ 10 µM
- NCC1Oc2ccccc2Oc2cccnc21 (single isomer, unassigned) [Compound 60]: ≥ 10 µM
- NCC1Cc2cc(Cl)ccc2Oc2cccnc21 (single isomer, unassigned) [Compound 120]: ≥ 10 µM
- CCc1ccc2c(n1)C(CN)Cc1ccccc1O2 (single isomer, unassigned) [Compound 151]: ≥ 10 µM
- CNCC1Cc2ccc(Cl)cc2Oc2cccnc21 (single isomer, unassigned) [Compound 127]: 1 to 10 µM
- CCNCC1Cc2ccccc2Oc2cccnc21 (single isomer, unassigned) [Compound 109]: ≥ 10 µM
- CNCC1Cc2ncccc2Oc2ccc(C#N)cc21 (single isomer, unassigned) [Compound 161]: ≥ 10 µM
- CNCC1Cc2ccccc2Oc2cccc(F)c21 (single isomer, unassigned) [Compound 106]: ≥ 10 µM

----------
- tgt: human 5-HT7 receptor (Homo sapiens)
- Construct: host or cells: CHO-K1
- protocol_notes: 5HT7 Antagonism Assay (Euroscreen FAST-0499C), cAMP HTRF
- Type: cell-based
- assay_context: CHO-K1 cells expressing human 5-HT7, reference agonist at EC80, cAMP HTRF
measurement_type: IC50

• CNCC1Cc2cc(C)ccc2Oc2cccnc21 (single isomer, unassigned) [Compound 130] = 1 to 10 µM
• C[C@@H]1c2ccccc2Oc2cccnc2[C@H]1CN (stereo in doubt) = ≥ 10 µM
• NCC1Cc2ncccc2Oc2cc(Cl)ccc21 (single isomer, unassigned) [Compound 172] = ≥ 10 µM
• CNCC1Cc2ccccc2Oc2c(F)cccc21 (single isomer, unassigned) = ≥ 10 µM
• CCc1ccc2c(n1)C(CNC)Cc1ccccc1O2 (single isomer, unassigned) = 1 to 10 µM
• Cc1cccc2c1CC(CN)c1ncccc1O2 (single isomer, unassigned) [Compound 141] = ≥ 10 µM
• Cc1ccc2c(n1)C(CN)Cc1ccccc1O2 (single isomer, unassigned) = ≥ 10 µM
• N#Cc1ccc2c(c1)C(CN)Cc1ncccc1O2 (single isomer, unassigned) [Compound 159] = ≥ 10 µM

----------
- tgt: human TAAR1 receptors (Homo sapiens)
- Construct: host or cells: CHO-K1
- Sequence (Q96RJ0 1-339): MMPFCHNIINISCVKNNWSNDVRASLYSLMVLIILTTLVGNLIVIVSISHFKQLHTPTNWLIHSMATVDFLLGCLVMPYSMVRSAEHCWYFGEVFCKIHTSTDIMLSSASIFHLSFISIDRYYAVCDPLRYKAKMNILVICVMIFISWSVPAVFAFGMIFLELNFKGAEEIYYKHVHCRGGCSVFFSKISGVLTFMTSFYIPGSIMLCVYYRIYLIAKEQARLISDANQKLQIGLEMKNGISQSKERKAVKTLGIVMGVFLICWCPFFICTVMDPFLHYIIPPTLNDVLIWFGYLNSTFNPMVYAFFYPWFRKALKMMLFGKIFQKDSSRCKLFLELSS
- protocol_notes: TAAR1 Agonism Assay: cAMP HTRF assay for Gs coupled receptor TAAR1 (Euroscreen FAST-0987C)
- Format: cell-based
- assay_context: CHO-K1 cells expressing human TAAR1, cAMP HTRF
measurement_type: EC50

- NCC1Cc2ccccc2Oc2cccc(F)c21 (single isomer, unassigned) [Compound 104]: < 1000 nM
- NCC1Cc2c(F)cccc2Oc2ccccc21 (single isomer, unassigned) [Compound 81]: < 1000 nM
- CNCC1Cc2ncccc2Oc2cc(Cl)ccc21 (single isomer, unassigned) [Compound 173]: > 10000 nM
- CNCC1Oc2ccccc2Oc2cnccc21 (single isomer, unassigned) [Compound 51]: 1000 to 10000 nM
- NCC1Cc2c(Cl)cccc2Oc2cccnc21 (single isomer, unassigned) [Compound 145]: < 1000 nM
- NCC1Cc2c(F)cncc2Oc2ccccc21 (single isomer, unassigned) [Compound 154]: > 10000 nM
- C[C@H]1c2ccccc2Oc2cccnc2[C@@H]1CN (stereo in doubt): 1000 to 10000 nM
- NCC1Cc2c(F)cccc2Oc2ccccc21 (single isomer, unassigned) [Compound 80]: < 1000 nM
- CCNCC1Cc2ccccc2Oc2cccnc21 (single isomer, unassigned) [Compound 109]: < 1000 nM
- CNCC1Cc2ncccc2Oc2ccccc21 (single isomer, unassigned) [Compound 32]: < 1000 nM
- NCC1Cc2cc(Br)ccc2Oc2cccnc21 (single isomer, unassigned): < 1000 nM
- CNCC1Oc2ccccc2Oc2cccnc21 (single isomer, unassigned) [Compound 58]: < 1000 nM
- NCC1Cc2ncccc2Oc2cc(F)ccc21 (single isomer, unassigned) [Compound 36]: < 1000 nM
- CNCC1Cc2ncccc2Oc2cc(F)ccc21 (single isomer, unassigned) [Compound 34]: < 1000 nM
- CNCC1Cc2ccc(C)cc2Oc2cccnc21 (single isomer, unassigned) [Compound 135]: < 1000 nM
- CNCC1Cc2ncccc2Oc2cc(Cl)ccc21 (single isomer, unassigned) [Compound 174]: > 10000 nM
- NCC1Oc2ccccc2Cc2ccccc21 (centres unmarked): < 1000 nM

----------
- tgt: human TAAR1 receptors (Homo sapiens)
- protocol_notes: TAAR1 Agonism Assay: cAMP HTRF assay for Gs coupled receptor TAAR1 (Euroscreen FAST-0987C)
- assay_context: CHO-K1 cells expressing human TAAR1, cAMP HTRF
pEC50: −log10 of the molar value.
measurement_type: pEC50

* CNCC1Cc2ncccc2Oc2ccc(F)cc21 (single isomer, unassigned) [Compound 165] | < 5.00
* NCC1Cc2c(F)cccc2Oc2cccnc21 (single isomer, unassigned) [Compound 137] | > 6.00
* CNCC1Oc2ccccc2Oc2cnccc21 (single isomer, unassigned) [Compound 52] | < 5.00
* CNCC1Cc2ncccc2Oc2cccc(F)c21 (single isomer, unassigned) [Compound 157] | < 5.00

----------
Below: a set of entries, each annotated with reported pIC50.
- tgt: human 5-HT2A receptor (Homo sapiens)
- Construct: host or cells: CHO-K1
- Sequence (P28223 whole entry): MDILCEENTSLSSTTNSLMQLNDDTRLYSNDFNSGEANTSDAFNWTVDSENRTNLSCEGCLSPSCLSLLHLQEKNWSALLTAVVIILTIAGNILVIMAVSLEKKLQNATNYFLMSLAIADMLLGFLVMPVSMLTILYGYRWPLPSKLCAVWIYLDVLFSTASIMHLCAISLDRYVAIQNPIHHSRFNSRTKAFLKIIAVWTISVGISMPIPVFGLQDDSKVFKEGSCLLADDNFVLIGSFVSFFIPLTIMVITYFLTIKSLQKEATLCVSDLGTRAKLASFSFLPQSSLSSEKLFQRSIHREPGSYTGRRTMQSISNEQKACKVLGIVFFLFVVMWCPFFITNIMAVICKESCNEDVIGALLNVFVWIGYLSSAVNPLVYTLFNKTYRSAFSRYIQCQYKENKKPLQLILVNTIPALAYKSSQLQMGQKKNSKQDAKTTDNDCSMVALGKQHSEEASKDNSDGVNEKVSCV
- protocol_notes: 5HT2A Antagonism Assay (Euroscreen FAST-05051), IP-One HTRF
- Format: cell-based
- assay_context: CHO-K1 cells expressing human 5-HT2A, reference agonist at EC80, IP-One, read-out: 5-HT2A (IC50)
pIC50: −log10 of the molar value.
measurement_type: pIC50

- CNC[C@@H]1Oc2ccccc2Oc2ccncc21 (single isomer, unassigned): < 5.00
- CNCC1Cc2ncccc2Oc2ccc(C#N)cc21 (single isomer, unassigned) [Compound 162]: 5.00 to 6.00
- CNCC1Cc2ncccc2Oc2cccc(F)c21 (single isomer, unassigned): < 5.00
- CNC[C@H]1Oc2ccccc2Oc2ccncc21 (single isomer, unassigned): < 5.00
- NCC1Oc2ccccc2Oc2ccncc21 (single isomer, unassigned) [Compound 53]: < 5.00
- NCC1Oc2ccccc2Oc2ncccc21 (single isomer, unassigned) [Compound 48]: < 5.00
- CNCC1Cc2ncccc2Oc2cc(Cl)ccc21 (single isomer, unassigned) [Compound 173]: > 6.00
- CNCC1Cc2ncccc2Oc2ccc(C#N)cc21 (single isomer, unassigned) [Compound 161]: 5.00 to 6.00
- CNCC1Cc2cccnc2Oc2ccccc21 (single isomer, unassigned) [Compound 19]: 5.00 to 6.00
- NCC1Oc2ccccc2Oc2ncccc21 (single isomer, unassigned) [Compound 47]: < 5.00
- NCC1Oc2ccccc2Cc2ccccc21 (stereo not shown): 5.00 to 6.00
- CNC[C@H]1Cc2ncc(F)cc2Oc2ccccc21 (single isomer, unassigned): > 6.00
- CNCC1Oc2ccccc2Oc2cnccc21 (single isomer, unassigned) [Compound 51]: 5.00 to 6.00
- CNCC1Oc2ccccc2Oc2ncccc21 (single isomer, unassigned) [Compound 46]: 5.00 to 6.00
- CNCC1Oc2ccccc2Oc2ncccc21 (single isomer, unassigned) [Compound 45]: 5.00 to 6.00
- CNCC1Cc2ncccc2Oc2cc(Cl)ccc21 (single isomer, unassigned) [Compound 174]: > 6.00
- NCC1Oc2ccccc2Oc2ccncc21 (single isomer, unassigned) [Compound 54]: < 5.00
- CNCC1Oc2ccccc2Oc2cnccc21 (single isomer, unassigned) [Compound 52]: 5.00 to 6.00
- CNCC1Cc2cccnc2Oc2ccccc21 (single isomer, unassigned) [Compound 20]: < 5.00

# credit: patent US20240245658A1
